Exercise: state measured viability, T/C for each of the molecules provided.
System: 361931-004-R-J1-PDC multicell spheroid viability
Test: Anticancer human tumor 361931-004-R-J1-PDC patient-derived colon adenocarcinoma cell line growth inhibition [PI3K]
Details: second compound 1 µM; first compound 10 µM; hits give low values
Give the value in % but do not write % after it.

Please tell me the measured viability, T/C for Cn1nccc1Nc1nccc(-c2ccn(C(CO)c3ccc(Cl)c(F)c3)c(=O)c2)n1 (stereo unspecified) + CC(Nc1ncnc2nc[nH]c12)c1cc2cccc(Cl)c2c(=O)n1-c1ccccc1 ; system: 361931-004-R-J1-PDC multicell spheroid viability.
56.5

Please tell me the measured viability, T/C for CC(C)NCC(C(=O)N1CCN(c2ncnc3c2C(C)CC3O)CC1)c1ccc(Cl)cc1 (stereo unspecified) + CC(Nc1ccc2c(c1)OCCn1cc(N3C(=O)OCC3C(F)F)nc1-2)C(N)=O ; system: 361931-004-R-J1-PDC multicell spheroid viability.
15.3

Please tell me the measured viability, T/C for Cn1ncc(Cl)c1-c1cc(C(=O)NC(CN)Cc2cccc(F)c2)sc1Cl (stereo unspecified) + CC(Nc1ccc2c(c1)OCCn1cc(N3C(=O)OCC3C(F)F)nc1-2)C(N)=O ; system: 361931-004-R-J1-PDC multicell spheroid viability.
16.1

Please tell me the measured viability, T/C for CC(C)NCC(C(=O)N1CCN(c2ncnc3c2C(C)CC3O)CC1)c1ccc(Cl)cc1 (stereo unspecified) + CC(Nc1ncnc2nc[nH]c12)c1cc2cccc(Cl)c2c(=O)n1-c1ccccc1 ; system: 361931-004-R-J1-PDC multicell spheroid viability.
31.9

Please tell me the measured viability, T/C for C#Cc1c(F)ccc2cc(O)cc(-c3ncc4c(N5CC6CCC(C5)N6)nc(OCC56CCCN5CC(F)C6)nc4c3F)c12 (stereo unspecified) + CC(Nc1ncnc2nc[nH]c12)c1cc2cccc(Cl)c2c(=O)n1-c1ccccc1 ; system: 361931-004-R-J1-PDC multicell spheroid viability.
84.4

Please tell me the measured viability, T/C for Cn1nccc1Nc1nccc(-c2ccn(C(CO)c3ccc(Cl)c(F)c3)c(=O)c2)n1 (stereo unspecified) + Cc1nc(NC(=O)N2CCCC2C(N)=O)sc1-c1ccnc(C(C)(C)C(F)(F)F)c1 ; system: 361931-004-R-J1-PDC multicell spheroid viability.
26.9

* * *

Test system: 361931-004-R-J1-PDC multicell spheroid viability
Assay: Anticancer human tumor 361931-004-R-J1-PDC cell line growth inhibition [PI3K];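 note: spheroids exposed to agents for seven days before readout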
Settings: second compound 0.0316 µM; first compound 0.316 µM; hits give low values
Endpoint Name: viability, T/C (%)
Give the value in % but do not write % after it.

Identify measured viability, T/C corresponding to CC(Cn1ccc(-c2ccc(C#N)c(Cl)c2)n1)NC(=O)c1cc(C(C)O)[nH]n1 (centres undefined) + CC(Nc1ccc2c(c1)OCCn1cc(N3C(=O)OCC3C(F)F)nc1-2)C(N)=O
105

Identify measured viability, T/C corresponding to CCN1CCN(Cc2ccc(Nc3ncc(F)c(-c4cc(F)c5nc(C)n(C(C)C)c5c4)n3)nc2)CC1 + CC(Nc1ccc2c(c1)OCCn1cc(N3C(=O)OCC3C(F)F)nc1-2)C(N)=O
68

Identify measured viability, T/C corresponding to CC1(C)CCC(CN2CCN(c3ccc(C(=O)NS(=O)(=O)c4ccc(NCC5CCOCC5)c([N+](=O)[O-])c4)c(Oc4cnc5[nH]ccc5c4)c3)CC2)=C(c2ccc(Cl)cc2)C1 + CC(Nc1ncnc2nc[nH]c12)c1cc2cccc(Cl)c2c(=O)n1-c1ccccc1
104

Identify measured viability, T/C corresponding to C=CC(=O)N1CCN(c2nc(=O)n(-c3c(C)ccnc3C(C)C)c3nc(-c4c(O)cccc4F)c(F)cc23)C(C)C1 (centres undefined) + CC(Nc1ncnc2nc[nH]c12)c1cc2cccc(Cl)c2c(=O)n1-c1ccccc1
104

These entries and their values trace back to PubChem BioAssay AID1963979.
